Where do these numbers come from? They come from paper PMC2756588.

- Tested system: T1, Bzz1-1, P38822
- T1 sequence (P38822 478-572, looked up): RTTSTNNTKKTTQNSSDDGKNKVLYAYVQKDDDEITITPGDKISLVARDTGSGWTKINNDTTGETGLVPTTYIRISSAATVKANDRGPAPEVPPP
- Experimental details: SPOT array
- Measurement setup: median of control spots 4446
Measured quantity: SPOT intensity

Field: example entries. Status: answers known.
{"columns": ["Binder", "SPOT intensity"],
 "data": [
  ["SSSSTPPTLPPRRIE", 0],
  ["AERNYAPRLPRRETS", 0]
]}

P: RRSKSLPTTPGIRSG
Q: ATNVPVAPPPPPASL
R: FTLPPPPPPPGLDEL
S: VRTRRRPPPPPIPST
T: FIRKRAPTPPAPSRS
Hey, quick one: sort these by SPOT intensity, low to high? Would you mind listing the labels in the order asked for? P, Q, R, T, S
(P: 0, Q: 1, R: 7, T: 52, S: 1720)
